Just for reference, PubChem BioAssay AID1996 is where these values come from.

- Details: buffer; pH 7.4; 200.0 µM

{"columns": ["Molecule", "Unit Of Measure", "Bound Type", "solubility kinetic"],
 "data": [
  ["O=C(Nc1ccc2oc(-c3ccncc3)nc2c1)c1ccc(F)cc1", "mg/mL", "=", 0.0009],
  ["CC(=O)NCCCNS(=O)(=O)c1ccc(C)cc1", "mg/mL", "=", 0.0322],
  ["N#Cc1ccc(OCC(=O)OCC(=O)c2ccccc2)cc1", "mg/mL", ">", 0.0443],
  ["CCCCC(=O)Nc1cc(C)c(NC(=O)c2ccco2)cn1", "mg/mL", ">", 0.0452],
  ["O=c1[nH]c(COc2ccccc2)nc2ccccc12", "mg/mL", "=", 0.0041],
  ["O=C(CN1CCOCC1)Nc1ccc2c(c1)OC(F)(F)O2", "mg/mL", "=", 0.0412],
  ["O=C(CSc1ccccn1)Nc1ccc2c(c1)OCCO2", "mg/mL", ">", 0.0454],
  ["O=C(Nc1cccc(S(=O)(=O)N2CCOCC2)c1)c1ccc(=O)[nH]c1", "mg/mL", ">", 0.0545],
  ["Cc1ccc(NC(=O)CNc2cc(S(=O)(=O)N3CCOCC3)ccc2N2CCOCC2)cc1S(=O)(=O)N(C)C", "mg/mL", "=", 0.0053],
  ["CC(O)CNCCNCc1cccs1.Cl (stereo not drawn)", "mg/mL", ">", 0.0431],
  ["Fc1ccc(NC(=S)Nc2cccnc2)c(Cl)c1", "mg/mL", ">", 0.0423],
  ["O=C(COC(=O)CNC(=O)c1ccccc1)Nc1ccc(Cl)cn1", "mg/mL", "=", 0.0158],
  ["CCN1CCCC1CNC(=O)c1cc2cc(OC)c(OC)cc2[nH]1 (stereo not drawn)", "mg/mL", ">", 0.0497]
]}
